cell count reference
Assay: supercomplex reporter luminescence per Hoechst cell count – Hoechst nuclei count (AID 1645838);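 further: control cybrid cells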
Conditions: Cells, luminescence/Hoechst cell count ratio, measured here: cell number, Hoechst nuclei count, library stock concentration (final well concentration not given) 1.67 mM
The campaign covered roughly 2,000 compounds. About 100 (5%) were called active. This excerpt belongs to a sample that is enriched for actives.

{"columns": ["molecule", "cell count"],
 "data": [
  ["O=c1[nH]oc2cc(Cl)ccc12", 6630],
  ["COc1cc(C(C)C)c2c(c1)S(=O)(=O)N(COc1cc(=O)n3cccc(OCCN4CCCCC4)c3n1)C2=O", 6790],
  ["Cc1cc(N2CCOCC2)ccc1Nc1nc(NC2CCCCC2)c2[nH]cnc2n1", 2040],
  ["COc1cc(C(=O)N(CCC2CCCN2C)CC(C)=Cc2ccccc2F)cc(OC)c1OC (stereo unspecified)", 6680],
  ["Cn1c2cc(S(C)=O)sc2c2cnn(Cc3cccc(N)c3)c(=O)c21 (stereo unspecified)", 6540],
  ["NC(=O)c1noc(C(CCCC2CCCCC2)CC(=O)NO)n1 (stereo unspecified)", 5390]
]}

###

Assay: supercomplex reporter luminescence per Hoechst cell count – Hoechst nuclei count (AID 1645838);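 further: control cybrid cells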
Conditions: Cells, luminescence/Hoechst cell count ratio, measured here: cell number, Hoechst nuclei count
The campaign covered roughly 2,000 compounds. About 100 (5%) were called active. Only a selection was taken, and actives are over-represented in it overall.
cell count reference

{"columns": ["compound", "cell count"],
 "data": [
  ["O=C(O)CCC/C=C\\CC1C2CCC(O2)C1CNNC(=O)Nc1ccccc1 (centres undefined)", 5630],
  ["O=C(O)CCC/C=C\\CC1C(=O)C[C@@H](O)[C@@H]1/C=C/[C@@H](O)COc1ccccc1 (some centres undefined)", 5150],
  ["COc1ccc2cc(CC(=O)O)ccc2c1", 5780],
  ["CCCCCCCC(=O)OC[C@H](CO)OC(=O)CCCCCCC", 5320],
  ["Cc1nnsc1C(=O)Nc1ccc(-n2nc(C(F)(F)F)cc2C(F)(F)F)cc1", 4970],
  ["CCCCC[C@@H](O)/C=C/[C@H]1[C@H](C/C=C\\CCCC(=O)O)C(=O)C[C@@H]1O", 5040],
  ["CCCCCCCCCCCCCCCC(=O)NC[C@@H](C)O", 5690],
  ["NC(=O)c1ccc(-c2nc(-c3ccc4c(c3)OCCO4)c(-c3ccccn3)[nH]2)cc1", 5540],
  ["NC(=NCC[C@H](N)C(=O)O)NO", 4620]
]}

###

z-score reference
Assay: supercomplex reporter luminescence per Hoechst cell count – Hoechst nuclei count (AID 1645838);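 further: control cybrid cells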;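 on z-score: higher means more mitochondrial supercomplex formation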
Settings: Cells, luminescence/Hoechst cell count ratio, library stock concentration (final well concentration not given) 400 uM, stronger effect = higher value
Out of some 2,000 compounds screened, about 100 (5%) were called active. The sample holds actives, similar compounds and a random draw of the others, so the mix is not that of the screen.
property: z-score

{"columns": ["compound", "property", "test result"],
 "data": [
  ["CCCCN(Cc1ccc(C(=O)NO)cc1)C(=O)Nc1ccccc1", "z-score", "-0.344 (inactive)"],
  ["CC(=O)Nc1ccc(C(=O)Nc2sc(Nc3ccccc3)nc2C(N)=O)cc1", "z-score", "0.37 (inactive)"],
  ["O=C(c1cc(Cc2n[nH]c(=O)c3ccccc23)ccc1F)N1CCN(C(=O)C2CC2)CC1", "z-score", "-0.127 (inactive)"],
  ["COc1ccc(C(=O)Nc2sc(Nc3ccccc3)nc2C(N)=O)cc1", "z-score", "0.382 (inactive)"],
  ["COC1C[C@@H]2CCC(C)[C@@](O)(O2)C(=O)C(=O)N2CCCC[C@@H]2C(=O)O[C@@H](C(C)CC2CCC(n3cnnn3)C(OC)C2)CC(=O)C(C)C=C(C)C(O)C(OC)C(=O)C(C)CC(C)C=CC=CC=C1C (stereo partly specified)", "z-score", "0.334 (inactive)"],
  ["CC1(C)OC2CO[C@@]3(COS(N)(=O)=O)OC(C)(C)OC3C2O1 (stereo partly specified)", "z-score", "0.0797 (inactive)"]
]}
